Test system: SF-295 CNS
Assay: NCI-60 one-dose screen, 48 h (100 = growth as untreated, 0 = no growth, -100 = all killed)
Details: 10 µM unless noted
The panel holds about 83,000 compounds, 20% with a hit somewhere; the sample as a whole holds those more often.
quantity.measured: growth (%)
# unit: % | format: bare number

Worked examples, 10 compounds total:
{"compound": "Cc1ccc(C(=O)CSc2nc(-c3ccc(Br)cc3)c(C#N)c(=O)[nH]2)cc1", "assayed.system": "SF-295 CNS", "assay.result": 106}
{"compound": "N#Cc1nc2c(S(=O)(=O)c3ccc(Cl)cc3)c(N)n(Nc3cccc(Cl)c3)c2nc1C#N", "assayed.system": "SF-295 CNS", "assay.result": 48.9}
{"compound": "Cc1c(Cl)cc(-n2c(=O)c3ccccc3c3ccccc3c2=O)cc1Cl", "assayed.system": "SF-295 CNS", "assay.result": 102}
{"compound": "COc1ccc2c(c1)O/C(=C\\c1cccc(OCC(=O)Nc3nc(C)c(C)s3)c1)C2=O", "assayed.system": "SF-295 CNS", "assay.result": -80.2}
{"compound": "COc1ccc(C2c3ccc4ccccc4c3Oc3nc(C)[nH]c(=O)c32)cc1 (stereo not given)", "assayed.system": "SF-295 CNS", "assay.result": 105}
{"compound": "Cc1ccc(S(=O)(=O)NCC[C@@H]2C[C@H]2c2cc3ccccc3s2)cc1", "assayed.system": "SF-295 CNS", "assay.result": 103}
{"compound": "O=C(/C=C/c1c(Cl)nc2sccn12)c1nccs1", "assayed.system": "SF-295 CNS", "assay.result": 110}
{"compound": "CC(=O)O[C@]1(C(C)=O)CCC2C3C[C@H](C)C4=CC(=O)CC[C@]4(C)C3CC[C@@]21C (stereo not given in full)", "assayed.system": "SF-295 CNS", "assay.result": 95.7}
{"compound": "O=C(CSc1nnc(-c2ccc(NC(=O)c3cccnc3)cc2)o1)Nc1cccc(Br)c1", "assayed.system": "SF-295 CNS", "assay.result": 87.2}
{"compound": "Cc1cc(Cl)nc(NCc2cc(Nc3ccnc4cc(Cl)ccc34)ccc2F)n1", "assayed.system": "SF-295 CNS", "assay.result": 69.5}

// query Entry "C[C@]12CC[C@@H]3c4cc(OC(F)F)c(O)cc4CC[C@H]3[C@@H]1CC[C@@H]2OS(N)(=O)=O" has what growth?
// result 12.8

// query Can you look up the measured growth of "COC(=O)c1c2c(c(C)[n+]([O-])c1C)C(=O)C(NCc1ccc(F)cc1)=CC2=O" for me?
// result 69.1

// query Returns the measured growth for the input compound. Input: CCCCCCCCCCCC(c1ccccc1)[N+](C)(C)C (stereo not given)
// result 55.1

// query Using the record for "COc1ccc(/C=N\NC(=O)c2cc(-c3ccc(Br)cc3)n(-c3ccc(S(N)(=O)=O)cc3)n2)cc1" , report its growth.
// result 11

// query Value lookup for growth; key = "Cc1cc(NCc2cc(Nc3ccnc4cc(Cl)ccc34)ccc2F)nc(N2CCSCC2)n1"
// result -57.3

// query Reported growth, compound "O=C1/C(=C/c2ccccc2)CCc2nc3ccccc3c(/C=C/c3ccc(Cl)cc3)c21" : ____
// result 96.3

// query Consider the compound "O=C1/C(=C\c2cccnc2)SC(=S)N1CCc1ccc(O)cc1" and give its measured growth.
// result 94

// query Requested read-out: growth. Entry: "C=CCNc1nc(NN2C(=O)c3cccc4cccc(c34)C2=O)nc(-n2cnc3ccccc32)n1"
// result 76.5

// query Entry under review: "COc1cc(CCC[P+](c2ccccc2)(c2ccccc2)c2ccccc2)cc2c1OCO2" . Reported growth?
// result 68.6

// query Item under review: "Cc1c(C(=O)N[C@@H](Cc2ccccc2)C(=O)C(=O)NCCc2ccccc2)[nH]c2ccccc2c1=O" . Reported growth?
// result 103

// query Quick one: growth of "COC(=O)[C@]12CC[C@@H](C)[C@H](C)[C@@H]1C1=CC[C@@H]3[C@@]4(C)C(C=O)=C[C@@](C)(COC(C)=O)[C@@H]4C(=O)C[C@@]3(C)[C@]1(C)CC2" ?
// result 32.1

====

System: RPMI-8226 leukemia
Test: NCI-60 one-dose screen, 48 h (100 = growth as untreated, 0 = no growth, -100 = all killed)
Conditions: 10 µM unless noted
This is part of a sample that, as a whole, favours compounds with a hit. Of some 83,000 tested, about 20% had one in any assay.
Just a reminder that ties go to F: only growth strictly below 60% counts as T.

As a guide, the following entries are already answered.
{"compound": "Cn1c(-c2c(N)n(Cc3ccc(C(F)(F)F)cc3)c3nc(C#N)c(C#N)nc23)nc2ccccc21", "category": "T"}
{"compound": "O=[N+]([O-])c1ccc(C2CC(c3ccccc3)=Nc3ccccc3S2)cc1 (centres undefined)", "category": "T"}
{"compound": "Fc1c[c-]c(-c2ccccn2)c(F)c1.[CH3-].[Pt+2].c1ccc(P(C[PH+](c2ccccc2)c2ccccc2)c2ccccc2)cc1", "category": "T"}
{"compound": "CCc1c2c(nc3ccc(OC(=O)OCc4ccc(B5OC(C)(C)C(C)(C)O5)cc4)cc13)-c1cc3c(c(=O)n1C2)COC(=O)[C@]3(O)CC", "category": "T"}
{"compound": "Clc1cccc(Cl)c1/C=C/c1cc(/C=C/c2c(Cl)cccc2Cl)[nH]n1", "category": "T"}
{"compound": "COc1cc(Cn2ncc3ccc(NC(=O)c4cc5ccccc5oc4=N)cc32)cc(OC)c1OC", "category": "T"}

// query Given the entry "O=c1ccn2nc3ccccc3c2[nH]1" , would its reported growth be below 60%?
// result F

// query Consider the compound "COC(=O)c1ccc(CSc2nnc(-c3c(C)nc4ccc(C)cn34)o2)cc1" . Is its growth strictly less than 60%?
// result F

// query Just wondering, is growth of CC1O[C@@H](OC2[C@H](OC(=O)/C=C/c3ccc(O)c(O)c3)C(COC3O[C@H](C)C(O)C(O)[C@@H]3O)O[C@@H](OCCc3ccc(O)c(O)c3)[C@H]2O)[C@@H](O)C(O)[C@H]1O (some centres undefined) below 60%?
// result F

// query Just wondering, is growth of "Fc1ccc(CNc2c3ccccc3nc3ccccc23)cc1F" below 60%?
// result T

// query Does CC1=C(SCCC(=O)OC(C[Se]C2=C(C)C(=O)c3ccccc3C2=O)C(=O)NCCCCCC(=O)OCc2ccccc2)C(=O)c2ccccc2C1=O (centres undefined) have growth strictly under 60%?
// result T

// query Identify whether the compound "CN1CCN(C(=O)c2c3c(n4ccccc24)C(=O)c2ncccc2C3=O)CC1" records growth below 60%.
// result T

// query # check: growth < 60% for "Cc1nc2c(c(N3CCCc4ccccc43)n1)CCC2"
// result T

====

Test system: HOP-92 NSCLC
Test: NCI-60 one-dose screen, 48 h
Conditions: 10 µM unless noted
This is part of a sample that, as a whole, favours compounds with a hit. Of some 83,000 tested, about 20% had one in any assay. Activity calls are given as the source filed them. The calls were made as follows: active = growth percent below 10; inactive = the rest.
# valid calls are active, inactive; nothing else

// query For "Cc1cc(Cl)ccc1Nc1nc(C(F)(F)F)ccc1C(=O)N/N=C/c1ccc(N(C)C)cc1" , which call appears in the assay record?
// result inactive

// query Identify the outcome logged in this assay for the molecule shown: COc1ccc(C2=Nc3c(N)ncnc3NC(c3ccc4c(c3)OCO4)C2)cc1 (configuration not stated)
// result inactive

// query Please state the recorded outcome for this molecule: "Cc1ccc(N(C(=O)CCc2c[nH]c3ccccc23)[C@H](C(=O)Nc2ccc(Cl)cc2)c2cccc([N+](=O)[O-])c2)cc1"
// result inactive

// query How did this test come out for "CCCCc1ccc(Nc2ccc(Nc3ccc(CCCC)cc3S(=O)(=O)O)c3c2C(=O)c2ccccc2C3=O)c(S(=O)(=O)O)c1" ?
// result inactive

// query Could you please tell me the result logged for COc1cccc2c1C(=O)c1c(O)c3c(c(O)c1C2=O)CC(O)(/C(C)=N/NC(=O)CCCCC(=O)N/N=C(\C)C1(O)Cc2c(O)c4c(c(O)c2C(OC2CC(N)C(O)C(C)O2)C1)C(=O)c1c(OC)cccc1C4=O)CC3OC1CC(N)C(O)C(C)O1 (configuration not stated) in this assay?
// result active

// query I'd appreciate the recorded outcome for "N#Cc1c(N2CCNCC2)nc2sc3cc(Cl)c(Cl)cc3n2c1=N" from this test.
// result inactive

// query Dear colleague, could you share the recorded outcome for "CCOC(=O)c1c(/C=C/C(=O)O)nc2ccccc2c1/C=C/c1ccccc1" when you have a moment?
// result inactive

// query # lookup: test call for "CC/C=C\C[C@H](O)C/C=C1/C(=O)C=C[C@@H]1C/C=C\CCCCO"
// result inactive

// query Recorded call for "Cc1ccc(-c2cc(-c3cccnc3)[nH]c(=O)c2C#N)cc1" ?
// result inactive

// query Would you mind telling me which call this test gave "COc1cc(/C=N/n2c(CN3CCOCC3)nc3ccccc3c2=O)cc(OC)c1OC" ?
// result inactive

// query What is the recorded call for this molecule in the test? "Cc1ccc(S(=O)(=O)NCC[C@@H]2C[C@H]2c2cc3ccccc3s2)cc1"
// result inactive

// query Recorded test call requested for "c1ccc(-c2nc([P+](c3ccccc3)(c3ccccc3)c3ccccc3)c(N3CCOCC3)o2)cc1"
// result active

// query Per the assay record, what outcome was assigned to Cc1nc2ccccc2n1CC1NC(=O)NC1=O (configuration not stated) ?
// result inactive

// query What is the recorded call for this molecule in the test? "CCN(CC)CCCNc1ccc(Nc2ccc(OC)cc2)cc1"
// result inactive

// query Which result was noted for this molecule in the test: "c1coc(-c2c3ccc(=[N+]4CCCCC4)cc-3oc3cc(N4CCCCC4)ccc23)c1"
// result active

// query Field: outcome | Entry: "COc1ccccc1CNCCCN1C(=O)c2ccc3c4c(ccc(c24)C1=O)C(=O)N(CCCNCCCCN)C3=O"
// result active

// query What call does the record list for "Cc1cccc(NC(=O)CSc2nc3ccccc3[nH]2)c1" ?
// result inactive
